- EXPERIMENTAL_TARGET: Avian myoblastosis virus polyprotein II (Avian myeloblastosis virus, UniProt Q86831)
- Sequence (Q86831 whole entry): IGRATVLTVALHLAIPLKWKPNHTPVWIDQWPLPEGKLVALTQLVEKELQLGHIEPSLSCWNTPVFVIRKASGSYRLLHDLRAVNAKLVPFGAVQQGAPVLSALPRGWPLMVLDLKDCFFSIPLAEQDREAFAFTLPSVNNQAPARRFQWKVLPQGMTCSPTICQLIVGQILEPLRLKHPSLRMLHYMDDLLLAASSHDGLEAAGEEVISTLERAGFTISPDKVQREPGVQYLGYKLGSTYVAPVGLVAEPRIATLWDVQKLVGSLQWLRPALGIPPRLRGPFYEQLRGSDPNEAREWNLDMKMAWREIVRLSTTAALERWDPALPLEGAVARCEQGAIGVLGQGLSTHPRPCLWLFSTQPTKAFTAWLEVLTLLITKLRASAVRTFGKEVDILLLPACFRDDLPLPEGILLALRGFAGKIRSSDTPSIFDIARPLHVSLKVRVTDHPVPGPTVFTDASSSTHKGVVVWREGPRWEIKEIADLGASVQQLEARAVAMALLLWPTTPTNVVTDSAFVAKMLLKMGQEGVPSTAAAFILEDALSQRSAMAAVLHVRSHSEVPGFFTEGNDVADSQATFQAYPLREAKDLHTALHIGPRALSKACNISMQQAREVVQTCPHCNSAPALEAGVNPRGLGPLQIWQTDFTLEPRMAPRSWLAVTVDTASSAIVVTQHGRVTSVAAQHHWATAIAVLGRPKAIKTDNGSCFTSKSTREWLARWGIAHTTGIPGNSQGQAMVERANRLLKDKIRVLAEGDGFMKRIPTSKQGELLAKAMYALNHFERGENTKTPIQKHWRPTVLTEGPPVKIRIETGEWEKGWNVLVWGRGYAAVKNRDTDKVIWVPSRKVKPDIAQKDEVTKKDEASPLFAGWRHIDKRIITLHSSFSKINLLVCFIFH
OBSERVATION_TYPE: pIC50
pIC50 field: float, defined as -log10 of concentration (mol/L).

The cases that follow already have their pIC50 on record.
MOLECULE	OBSERVATION_TYPE	ASSAY_VALUE
O=c1[nH]c(=O)n([C@H]2C[C@H](O)[C@@H](COP(=O)(O)C(F)(F)F)O2)cc1F	pIC50	4.09
Cc1cn(C2C=CC(COP(=O)(O)C(F)(F)F)O2)c(=O)[nH]c1=O (stereo not given)	pIC50	3.07
Cc1cn(C2C=CC(COP(=O)(O)C(F)F)O2)c(=O)[nH]c1=O (stereo not given)	pIC50	3.05
O=c1[nH]c(=O)n([C@H]2C[C@H](O)[C@@H](COP(=O)(O)C(F)F)O2)cc1F	pIC50	3.43
Cc1cn(C2C=CC(COP(=O)(O)CF)O2)c(=O)[nH]c1=O (stereo not given)	pIC50	3.55
Nc1ccn(C2O[C@H](COP(=O)(O)C(F)F)[C@@H](O)[C@H]2O)c(=O)n1 (stereo not given in full)	pIC50	3.77

(Q) Quick check: pIC50 on Avian myoblastosis virus polyprotein II (Avian myeloblastosis virus, UniProt Q86831), item Cc1cn(C2CC(N=[N+]=[N-])C(COP(=O)(O)C(F)(F)F)O2)c(=O)[nH]c1=O (stereo not given) ?
(A) 4.43

(Q) Quick check: pIC50 on Avian myoblastosis virus polyprotein II (Avian myeloblastosis virus, UniProt Q86831), item Cc1cn(C2CC(N=[N+]=[N-])C(COP(=O)(O)CF)O2)c(=O)[nH]c1=O (stereo not given) ?
(A) 3.90

(Q) Quick check: pIC50 on Avian myoblastosis virus polyprotein II (Avian myeloblastosis virus, UniProt Q86831), item Nc1nc(O)c2ncn(C3O[C@H](COP(=O)(O)C(F)(F)F)[C@@H](O)[C@H]3O)c2n1 (stereo not given in full) ?
(A) 3.84

(Q) Quick check: pIC50 on Avian myoblastosis virus polyprotein II (Avian myeloblastosis virus, UniProt Q86831), item Cc1cn(C2CC(N=[N+]=[N-])C(COP(=O)(O)C(F)F)O2)c(=O)[nH]c1=O (stereo not given) ?
(A) 3.93
